Target: NET (norepinephrine transporter) (Rattus norvegicus, UniProt Q63380)
Construct: Cortex from rat brain was collected and homogenised; from tissue; host or cells: rat brain cortex
Sequence (Q63380 1-617): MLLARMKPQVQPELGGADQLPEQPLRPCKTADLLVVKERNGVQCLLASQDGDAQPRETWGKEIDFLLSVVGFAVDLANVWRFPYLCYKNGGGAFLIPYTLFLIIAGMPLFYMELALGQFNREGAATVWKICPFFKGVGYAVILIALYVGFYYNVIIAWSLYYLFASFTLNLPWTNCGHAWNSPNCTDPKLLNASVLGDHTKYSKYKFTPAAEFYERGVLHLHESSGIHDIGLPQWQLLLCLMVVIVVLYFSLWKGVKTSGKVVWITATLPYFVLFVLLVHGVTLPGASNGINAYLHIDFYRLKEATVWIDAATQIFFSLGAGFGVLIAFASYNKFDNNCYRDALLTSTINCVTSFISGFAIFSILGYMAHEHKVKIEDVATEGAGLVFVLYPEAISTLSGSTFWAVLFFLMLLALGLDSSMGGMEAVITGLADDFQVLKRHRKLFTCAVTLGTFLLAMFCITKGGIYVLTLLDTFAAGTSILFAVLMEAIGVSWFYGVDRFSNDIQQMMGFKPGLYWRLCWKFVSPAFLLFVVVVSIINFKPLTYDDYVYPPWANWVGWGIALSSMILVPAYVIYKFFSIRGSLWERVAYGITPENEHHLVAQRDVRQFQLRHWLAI
Assay: In vitro determination of NET reuptake inhibition ([3H]Nixosetine binding, rat brain cortex)
Conditions: rat brain cortex, read-out: NET pIC50 (converted)
I'd appreciate it if you could supply log10 IC50 values for the items below.
Give log10 of IC50, with IC50 taken in nM.

Solved cases (5 shown):
compound	log10 IC50
OCC1CN(CC2CC3c4ccccc4Cc4ccc(F)cc4C3O2)CCO1 (mixture of isomers)	3.42
Fc1ccc(OCCN2CCN(CC3CC4c5ccccc5Cc5ccc(F)cc5C4O3)CC2)cc1 (stereo not shown)	3.34
COCCC1CN(C[C@H]2C[C@@H]3c4ccccc4Cc4ccc(F)cc4[C@@H]3O2)CCO1 (stereo partly shown)	3.55
CC(C)(C)NC(=S)N1CCN(CC2CC3c4ccccc4Cc4ccc(F)cc4C3O2)CC1 (stereo not shown)	2.42
COc1cc(NC(=S)NC2CCN(CC3CC4c5ccccc5Cc5ccc(F)cc5C4O3)CC2)cc(OC)c1OC (stereo not shown)	3.75

Please give measured log10 IC50 of the following entry: O=C(C1CCN(CC2CC3c4ccccc4Cc4ccc(F)cc4C3O2)CC1)N1CCN(c2cccc(Cl)c2)CC1 (stereo not shown)
3.21

----------
Target: NET (norepinephrine transporter) (Rattus norvegicus)
Construct: Cortex from rat brain was collected and homogenised; from tissue; host or cells: rat brain cortex
Experiment: In vitro determination of NET reuptake inhibition ([3H]Nixosetine binding, rat brain cortex)
Conditions: rat brain cortex, read-out: NET pIC50 (converted)
Kindly supply the reported IC50 values for the records listed here.

compound	recorded-measurement
O=C(Cc1ccccc1)OC1CCN(CC2CC3c4ccccc4Cc4ccc(F)cc4C3O2)C1 (mixture of isomers)	1.78 µM

I'm hoping you can list IC50 for every compound here, please.
1. OC1CCCN(CC2CC3c4ccccc4Cc4ccc(F)cc4C3O2)C1 (single isomer, unassigned) [Compound 143]
2. COC(=O)C1CCN(C[C@H]2C[C@@H]3c4ccccc4Cc4ccc(F)cc4[C@@H]3O2)C1 (single isomer, unassigned) [Compound 11]
3. COc1cc(OC)c(CNC(=O)C2CCN(CC3CC4c5ccccc5Cc5ccc(F)cc5C4O3)CC2)c(OC)c1 (stereo not shown)

> 10 µM
8.32 µM
3.55 µM

----------
Molecular target: human cloned 5-HT2C receptor, expressed in CHO cells (Homo sapiens, UniProt P28335)
Construct: expressed in transfected cells; host or cells: CHO cells
Sequence (P28335 33-458): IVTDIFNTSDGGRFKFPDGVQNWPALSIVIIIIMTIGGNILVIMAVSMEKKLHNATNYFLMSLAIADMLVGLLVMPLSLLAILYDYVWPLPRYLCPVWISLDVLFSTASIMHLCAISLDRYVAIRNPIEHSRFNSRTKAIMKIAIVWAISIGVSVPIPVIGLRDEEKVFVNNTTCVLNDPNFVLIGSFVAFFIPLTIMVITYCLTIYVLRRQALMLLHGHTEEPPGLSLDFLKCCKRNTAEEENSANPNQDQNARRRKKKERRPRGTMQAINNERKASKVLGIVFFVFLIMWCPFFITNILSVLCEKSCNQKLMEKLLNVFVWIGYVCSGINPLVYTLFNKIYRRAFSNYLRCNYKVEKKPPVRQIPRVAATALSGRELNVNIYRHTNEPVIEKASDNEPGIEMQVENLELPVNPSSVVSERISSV
Experiment: In vitro binding affinity for 5-HT2C receptor ([3H]mesulergine radioligand binding)
Conditions: human cloned 5-HT2C receptor, read-out: 5-HT2C pIC50 (converted)
Field: IC50. Provide a value for each of the compounds that follow.
Numbers only, in nM.

Use the examples below as a reference point.
compound	units-label	recorded-measurement
Fc1ccc2c(c1)C1OC(CN3CCN(Cc4ccc5ccccc5c4)CC3)CC1c1ccccc1C2 (centres unmarked) [Compound 74]	nM	162
CN(C)C1CCN(CC2CC3c4ccccc4Cc4ccc(F)cc4C3O2)C1 (mixture of isomers) [Compound 9]	nM	9.55
COC(=O)NC1CCN(CC2CC3c4ccccc4Cc4ccc(F)cc4C3O2)CC1 (centres unmarked) [Compound 210]	nM	4.17
O=C(NC1CC1)N1CCN(CC2CC3c4ccccc4Cc4ccc(F)cc4C3O2)CC1 (centres unmarked) [Compound 94]	nM	2.19
COCCNC(=S)NC1CCN(CC2CC3c4ccccc4Cc4ccc(F)cc4C3O2)CC1 (centres unmarked) [Compound 252]	nM	6.61
O=C(NCc1ccc(F)cc1)N1CCN(CC2CC3c4ccccc4Cc4ccc(F)cc4C3O2)CC1 (centres unmarked) [Compound 99]	nM	8.13
O=C(NC1CCN(CC2CC3c4ccccc4Cc4ccc(F)cc4C3O2)CC1)c1ccc(-c2ccccc2)cc1 (centres unmarked) [Compound 237]	nM	38

Kindly review the next compound as well.
Tell me IC50 reported for Fc1ccc2c(c1)C1OC(CN3CCN(c4nc5ccccc5s4)CC3)CC1c1ccccc1C2 (centres unmarked) [Compound 125]
77.6

----------
Target: human Dopamine D2L receptor (Homo sapiens)
Construct: expressed in transfected cells; host or cells: CHO cells
Assay: In vitro binding affinity for human D2L receptor ([3H]Spiperone binding)
Details: D2L pIC50, human D2L receptor-transfected CHO cell membranes
observation-type: IC50
Answer format: number, then unit.

Using known records, supply IC50 for COc1ccc(OC(=O)NC2CCN(CC3CC4c5ccccc5Cc5ccc(F)cc5C4O3)CC2)cc1 (stereo not shown) [Compound 219]
3.39 nM

----------
Target: human cloned 5-HT2C receptor, expressed in CHO cells (Homo sapiens, UniProt P28335)
Construct: expressed in transfected cells; host or cells: CHO cells
Assay: In vitro binding affinity for 5-HT2C receptor ([3H]mesulergine radioligand binding)
Conditions: human cloned 5-HT2C receptor, read-out: 5-HT2C pIC50 (converted)
observation-type: log10(IC50) (log10 of the value in nM)
Each number you see is log10 of IC50, and the unit inside the log is nM.

Some compounds with known log10(IC50) results, for comparison:
compound	study-target	observation-type	recorded-measurement
COc1ccc(OC2CCN(CC3CC4c5ccccc5Cc5ccc(F)cc5C4O3)C2)cc1 (mixture of isomers) [Compound 33]	human cloned 5-HT2C receptor, expressed in CHO cells (Homo sapiens, UniProt P28335)	log10(IC50)	0.30
OCCC1CN(C[C@H]2C[C@@H]3c4ccccc4Cc4ccc(F)cc4[C@@H]3O2)CCO1 (stereo partly shown) [Compound 129]	human cloned 5-HT2C receptor, expressed in CHO cells (Homo sapiens, UniProt P28335)	log10(IC50)	0.88

For each of the compounds below, note its log10(IC50).
1. O=C(Cc1ccc(Cl)cc1)NC1CCN(CC2CC3c4ccccc4Cc4ccc(F)cc4C3O2)CC1 (stereo not shown) [Compound 239]
2. OC1CCCN(CC2CC3c4ccccc4Cc4ccc(F)cc4C3O2)C1 (racemic) [Compound 141]
3. O=C(NC1CCN(CC2CC3c4ccccc4Cc4ccc(F)cc4C3O2)CC1)c1cccc(F)c1 (stereo not shown) [Compound 231]
4. O=C(NC1CCN(CC2CC3c4ccccc4Cc4ccc(F)cc4C3O2)CC1)c1cccc(Cl)c1Cl (stereo not shown) [Compound 228]
5. OC1CCN(CC2CC3c4ccccc4Sc4ccc(F)cc4C3O2)C1 (racemic) [Compound 44]
6. O=C(c1cccs1)N1CCN(CC2CC3c4ccccc4Cc4ccc(F)cc4C3O2)CC1 (stereo not shown) [Compound 81]
7. CC1(O)CCN(C[C@H]2C[C@@H]3c4ccccc4Cc4ccc(F)cc4[C@@H]3O2)C1 (stereo partly shown) [Compound 39]
8. COC(=O)c1ccc(OC2CCN(CC3CC4c5ccccc5Cc5ccc(F)cc5C4O3)C2)cc1 (stereo not shown) [Compound 30]

1: 1.36; 2: 0.06; 3: 1.03; 4: 1.32; 5: 0.97; 6: 0.70; 7: -0.29; 8: 0.76

----------
Target: human Dopamine D2L receptor (Homo sapiens, UniProt P14416)
Construct: expressed in transfected cells; host or cells: CHO cells
Sequence (P14416 whole entry): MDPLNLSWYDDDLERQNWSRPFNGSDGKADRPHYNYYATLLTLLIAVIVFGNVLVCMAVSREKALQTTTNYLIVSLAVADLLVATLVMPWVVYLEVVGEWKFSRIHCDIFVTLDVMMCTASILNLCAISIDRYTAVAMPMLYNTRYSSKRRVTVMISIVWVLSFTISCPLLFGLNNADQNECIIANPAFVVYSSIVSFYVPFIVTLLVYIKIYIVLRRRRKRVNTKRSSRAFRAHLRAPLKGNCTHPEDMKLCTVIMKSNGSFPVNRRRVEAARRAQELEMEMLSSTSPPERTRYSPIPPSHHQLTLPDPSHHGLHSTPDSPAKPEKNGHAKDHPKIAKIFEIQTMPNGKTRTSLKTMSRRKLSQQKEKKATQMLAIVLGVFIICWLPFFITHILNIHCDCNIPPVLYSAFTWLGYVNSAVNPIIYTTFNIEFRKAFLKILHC
Assay: In vitro binding affinity for human D2L receptor ([3H]Spiperone binding)
Conditions: human D2L receptor-transfected CHO cell membranes, read-out: D2L pIC50 (converted)
Field: label. Allowed values: T (IC50 < 40 nM) or F (IC50 >= 40 nM).

Previously resolved entries follow.
compound	classification
O=C(c1cccs1)N1CCN(CC2CC3c4ccccc4Cc4ccc(F)cc4C3O2)CC1 (stereo not shown)	T
COC(=O)c1ccc(OC2CCN(CC3CC4c5ccccc5Cc5ccc(F)cc5C4O3)C2)cc1 (stereo not shown)	T
O=C(Nc1ccc(F)c(Cl)c1)C1CCN(CC2CC3c4ccccc4Cc4ccc(F)cc4C3O2)CC1 (stereo not shown)	F

Consider the record given below.
Report whether reported IC50 is lower than 40 nM (strictly) for O=C(NC1CCN(CC2CC3c4ccccc4Cc4ccc(F)cc4C3O2)CC1)c1cc2ccccc2s1 (stereo not shown)
T

----------
Target: human Dopamine D2L receptor (Homo sapiens)
Construct: expressed in transfected cells; host or cells: CHO cells
Assay: In vitro binding affinity for human D2L receptor ([3H]Spiperone binding)
Conditions: human D2L receptor-transfected CHO cell membranes, read-out: D2L pIC50 (converted)
observation-type: IC50
The answer consists of two parts: a number and, after it, its unit.

compound	study-target	observation-type	recorded-measurement
Fc1ccc2c(c1)C1OC(CN3CCOC(CCOc4ccccc4)C3)CC1c1ccccc1C2 (mixture of isomers)	human Dopamine D2L receptor (Homo sapiens)	IC50	19.5 nM
OCC1CCCN(C[C@H]2C[C@@H]3c4ccccc4Cc4ccc(F)cc4[C@@H]3O2)C1 (stereo partly shown)	human Dopamine D2L receptor (Homo sapiens)	IC50	4.79 nM
O=C(Nc1ccccc1)NC1CCN(CC2CC3c4ccccc4Cc4ccc(F)cc4C3O2)CC1 (stereo not shown)	human Dopamine D2L receptor (Homo sapiens)	IC50	3.31 nM
CSCCNC(=O)N1CCN(CC2CC3c4ccccc4Cc4ccc(F)cc4C3O2)CC1 (stereo not shown)	human Dopamine D2L receptor (Homo sapiens)	IC50	25.7 nM
Fc1ccc2c(c1)C1OC(CN3CCN(C(=S)Nc4ccccc4)CC3)CC1c1ccccc1C2 (stereo not shown)	human Dopamine D2L receptor (Homo sapiens)	IC50	112 nM

Hey, can you go through the list below and give me IC50 for every item?
1. O=C(CSc1ccccc1)NC1CCN(CC2CC3c4ccccc4Cc4ccc(F)cc4C3O2)CC1 (stereo not shown)
2. Fc1ccc2c(c1)C1OC(CN3CCCC(C4=NCCN4)C3)CC1c1ccccc1C2 (stereo not shown)
3. OCC1CN(CC2CC3c4ccccc4Cc4ccc(F)cc4C3O2)CCO1 (mixture of isomers)
4. COCC1(O)CCN(C[C@H]2C[C@@H]3c4ccccc4Cc4ccc(F)cc4[C@@H]3O2)CC1

["5.5 nM", "282 nM", "18.6 nM", "2.14 nM"]
